Ref: patent US20060079453A1

Recorded IC50 by entry
- TARGET SYSTEM: HLA-DR DRB1*0901 (DR9) (Homo sapiens, UniProt P01903+P01911, A100R/A103E/D57H/D86V/F55Y/F60I/F76Y/I96F/K127E/L162R/M171V/P40D/Q125H/Q99R/R33Q/R42F/S133A/S66N/T210M/V115G/W38K/Y107V/Y59G/Y89S)
- RUN DESCRIPTION: biochemical
- Assay type: binding
- REPORTED CONDITIONS: DRB1 *0901
MEASUREMENT NAME: IC50 (µM)

SMILES NOTATION: CC[C@H](C)[C@H](N)C(=O)N[C@@H](CO)C(=O)N[C@H](C(=O)N[C@H](C(=O)N[C@@H](CC(N)=O)C(=O)N[C@@H](CCC(=O)O)C(=O)N[C@@H](CC(=O)O)C(=O)NCC(=O)N[C@@H](CC(N)=O)C(=O)N[C@@H](CCC(=O)O)C(=O)N[C@H](C(=O)N[C@@H](Cc1ccccc1)C(=O)N[C@@H](CC(N)=O)C(=O)N[C@H](C(=O)N[C@@H](CO)C(=O)O)[C@@H](C)O)[C@@H](C)CC)[C@@H](C)CC)[C@@H](C)CC
MEASUREMENT NAME: IC50
VALUE MODIFIER: >
RESULT: 52.3

SMILES NOTATION: CC(C)C[C@H](NC(=O)CNC(=O)[C@H](CC(N)=O)NC(=O)[C@H](Cc1ccc(O)cc1)NC(=O)[C@@H](NC(=O)[C@H](CC(=O)O)NC(=O)[C@H](CC(C)C)NC(=O)[C@H](C)N)C(C)C)C(=O)N[C@@H](CC(C)C)C(=O)N1CCC[C@H]1C(=O)N1CCC[C@H]1C(=O)N[C@@H](Cc1ccc(O)cc1)C(=O)N[C@@H](C)C(=O)N[C@@H](CO)C(=O)N[C@@H](CS)C(=O)O
MEASUREMENT NAME: IC50
VALUE MODIFIER: =
RESULT: 86.6

SMILES NOTATION: CC[C@H](C)[C@H](NC(=O)[C@@H](NC(=O)[C@H](Cc1c[nH]cn1)NC(=O)[C@@H](N)CC(C)C)C(C)C)C(=O)N[C@@H](CO)C(=O)N[C@@H](CC(N)=O)C(=O)N[C@@H](CC(=O)O)C(=O)N[C@H](C(=O)N[C@@H](CS)C(=O)N[C@@H](C)C(=O)N[C@@H](CCC(N)=O)C(=O)N[C@H](C(=O)N[C@@H](Cc1c[nH]cn1)C(=O)N1CCC[C@H]1C(=O)N[C@@H](CCC(N)=O)C(=O)O)C(C)C)C(C)C
MEASUREMENT NAME: IC50
VALUE MODIFIER: =
RESULT: 32.7

SMILES NOTATION: CC[C@H](C)[C@H](NC(=O)[C@H](CO)NC(=O)[C@H](CC(C)C)NC(=O)[C@@H](NC(=O)[C@H](CC(C)C)NC(=O)[C@H](CC(=O)O)NC(=O)[C@H](Cc1c[nH]c2ccccc12)NC(=O)[C@@H](N)CCSC)C(C)C)C(=O)N[C@@H](C)C(=O)N[C@@H](CC(C)C)C(=O)N[C@@H](CO)C(=O)N[C@H](C(=O)NCC(=O)N[C@@H](CS)C(=O)N[C@H](C(=O)O)[C@@H](C)O)C(C)C
MEASUREMENT NAME: IC50
VALUE MODIFIER: =
RESULT: 1.73

SMILES NOTATION: CC[C@H](C)[C@H](NC(=O)[C@H](CCCCN)NC(=O)[C@H](C)NC(=O)[C@@H]1CCCN1C(=O)[C@H](CCC(=O)O)NC(=O)[C@H](CO)NC(=O)[C@H](CC(C)C)NC(=O)[C@H](CCCNC(=N)N)NC(=O)[C@H](CC(C)C)NC(=O)[C@H](CC(C)C)NC(=O)[C@H](CCSC)NC(=O)[C@H](CC(C)C)NC(=O)[C@H](CC(=O)O)NC(=O)[C@@H](N)Cc1c[nH]cn1)C(=O)N[C@H](C(=O)O)[C@@H](C)O
MEASUREMENT NAME: IC50
VALUE MODIFIER: =
RESULT: 0.043
